Every entry's value here was drawn from paper PMC5583658.

Assay: Determination of M1 in rat plasma by HPLC (pharmacokinetics)
Assay type: in vivo, albino Wistar rats
Details: albino Wistar, rat; single oral administration of 50 mg/kg in rats, n = 3; plasma; read-out: MRT (mean retention time)
recorded metric: MRT
Note: a bare number is incomplete; add the unit.

Ask: What does the data say about its MRT? Entry: COc1cc2c(cc1OC)CC(C(=O)O)NC2 (stereo not shown) [M1]
Result: 10.5 h

----------
Assay: Determination of M1 in rat plasma by HPLC (pharmacokinetics)
Format: in vivo, albino Wistar rats
Details: albino Wistar, rat, plasma, po, 50 mg/kg, single oral administration of 50 mg/kg in rats, n = 3; plasma; after 36 h
Method: In a separate experiment, M1 was administered orally at 50 mg/kg bodyweight to albino Wistar rats (n = 3) and blood was collected from retro orbital plexus at 0.083, 0.25, 0.5, 1, 2, 4, 8, 12, 16, 24 and 36 h. […] For the determination of M1 in plasma samples, chromatographic separations were performed in a Waters 2489 HPLC (MA, USA) equipped with Spherowsorb C18, 5μ, 4.6 × 250 mm column. […] The HPLC was run through Empower software version 2 and absorbance was measured at 230 nm wave length. […]
recorded metric: AUC(0-t) (ng·h/mL)
Unit ng·h/mL implied. Number only.

Ask: AUC(0-t) for COc1cc2c(cc1OC)CC(C(=O)O)NC2 (stereo not shown) ?
Result: 2070
